Assay: Rat biodistribution of Tc-99m complexes
Conditions: 60 min p.i.
Recorded Heart, one value per entry.
Expressed in % Injected dose/organ, but write only the number.

Guide cases for Heart, answers given:
Molecule	Heart / % Injected dose/organ
CCCOCCP(CCOC)CCP(CCOC)CCOCCC (centres unmarked)	1.15
COCCP(CCOC)CCP(CCOC)CCOC	0.17
CCC(CP(CCP(CC(CC)OC)CC(CC)OC)CC(CC)OC)OC (centres unmarked)	0.48
CCOCC(COCC)CP(CCP(CC(COCC)COCC)CC(COCC)COCC)CC(COCC)COCC	0.41
COCCCP(CCCOC)CCP(CCCOC)CCCOC	0.09

Query :: Name the reported Heart value associated with the molecule CCOCCCP(CCOC)CCP(CCCOCC)CCOC (centres unmarked)
Result :: 0.70

Query :: Name the reported Heart value associated with the molecule CCOCCP(CCOC(C)C)CCP(CCOCC)CCOC(C)C (centres unmarked)
Result :: 0.99

Query :: Name the reported Heart value associated with the molecule "COCC(COC)CP(CCP(CC(COC)COC)CC(COC)COC)CC(COC)COC"
Result :: 0.86

Query :: Name the reported Heart value associated with the molecule CCOC(C)CP(CCP(CC(C)OCC)CC(C)OCC)CC(C)OCC (centres unmarked)
Result :: 0.96

Query :: Name the reported Heart value associated with the molecule "CCOCCP(CCOCC)c1ccccc1P(CCOCC)CCOCC"
Result :: 0.54

Query :: Name the reported Heart value associated with the molecule CC1(C)OCC(CP(CCP(CC2COC(C)(C)O2)CC2COC(C)(C)O2)CC2COC(C)(C)O2)O1 (centres unmarked)
Result :: 1.00

Query :: Name the reported Heart value associated with the molecule "CCOCP(CCP(COCC)COCC)COCC"
Result :: 0.27

Query :: Name the reported Heart value associated with the molecule "COC(C)(C)CCP(CCP(CCC(C)(C)OC)CCC(C)(C)OC)CCC(C)(C)OC"
Result :: 0.54

Where do these numbers come from? They come from patent US5045302A.
